- Tested target: cyclooxygenase-2 (Mus musculus)
- Sequence (Q05769 18-604): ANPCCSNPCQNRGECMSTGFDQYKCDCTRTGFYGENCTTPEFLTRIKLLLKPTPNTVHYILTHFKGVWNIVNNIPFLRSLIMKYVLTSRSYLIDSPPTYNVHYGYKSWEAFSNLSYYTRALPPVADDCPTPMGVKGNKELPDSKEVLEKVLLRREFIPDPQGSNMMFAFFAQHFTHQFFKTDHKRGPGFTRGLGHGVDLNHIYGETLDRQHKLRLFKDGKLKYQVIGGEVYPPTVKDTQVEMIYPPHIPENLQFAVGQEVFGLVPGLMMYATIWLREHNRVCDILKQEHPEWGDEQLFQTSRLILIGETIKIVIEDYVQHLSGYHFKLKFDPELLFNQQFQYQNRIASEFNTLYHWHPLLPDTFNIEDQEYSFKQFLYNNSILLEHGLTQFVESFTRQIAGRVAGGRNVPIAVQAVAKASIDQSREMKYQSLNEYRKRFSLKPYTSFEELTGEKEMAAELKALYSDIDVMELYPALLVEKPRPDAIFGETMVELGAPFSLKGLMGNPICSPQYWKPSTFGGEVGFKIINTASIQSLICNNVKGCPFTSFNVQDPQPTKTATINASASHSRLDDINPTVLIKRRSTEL
- Procedure text: Cell-based assay for cyclooxygenase-2 inhibition (PGE2 ELISA, LPS-treated RAW264.7 macrophages)
- Recorded conditions: lipopolysaccharide-treated murine RAW264.7 macrophages
pIC50: −log10 of the molar value.
Recorded metric: pIC50

INPUT: # get_value(readout='pIC50', item= "Cc1onc(-c2ccccc2)c1-c1ccc(S(N)(=O)=O)c(F)c1" )
OUTPUT: 8.60 to 8.90

Where these numbers come from: patent US7329401B2
